Origin of values: patent US20170145104A1

Biological target: T1, human GITR, membrane bound (on activated human T cells and on 3A9-hGITR cells) (human, UniProt Q9Y5U5 26-241)
T1 construct: whole, on cells; the cell is named under assay; also called huGITR; TNFRSF18
T1 sequence (looked up): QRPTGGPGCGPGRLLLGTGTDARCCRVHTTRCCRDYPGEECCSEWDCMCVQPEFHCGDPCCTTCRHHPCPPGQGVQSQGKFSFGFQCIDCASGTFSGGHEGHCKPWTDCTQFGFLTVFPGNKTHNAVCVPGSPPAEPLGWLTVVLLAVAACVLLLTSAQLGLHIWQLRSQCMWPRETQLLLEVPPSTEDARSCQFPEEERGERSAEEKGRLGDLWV
Assay: FACS binding to 3A9-hGITR transfectant, Geo-MFI (PE); EC50 table beside the curves; unit from the axis
# EC50 per entry
recorded.metric: EC50 (nM)

binder	recorded.metric	result.number
28F3 VH CDR3 mutant M98A, D106E, M111L (antibody, V domains shown, also called G3) VH: QVQLVESGGGVVQPGRSLRLSCAASGFTFSSYGMHWVRQAPGKGLEWVAVIWYEGSNKYYADSVKGRFTISRDNSKNTLYLQMNSLRAEDTAVYYCARGGSAVRGEYYYGLDVWGQGTTVTVSS VL: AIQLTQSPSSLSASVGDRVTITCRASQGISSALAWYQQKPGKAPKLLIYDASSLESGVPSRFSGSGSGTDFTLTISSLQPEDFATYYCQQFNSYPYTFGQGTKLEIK	EC50	62
28F3 VH CDR3 mutant M98V, M111L (antibody, V domains shown, also called A1) VH: QVQLVESGGGVVQPGRSLRLSCAASGFTFSSYGMHWVRQAPGKGLEWVAVIWYEGSNKYYADSVKGRFTISRDNSKNTLYLQMNSLRAEDTAVYYCARGGSVVRGDYYYGLDVWGQGTTVTVSS VL: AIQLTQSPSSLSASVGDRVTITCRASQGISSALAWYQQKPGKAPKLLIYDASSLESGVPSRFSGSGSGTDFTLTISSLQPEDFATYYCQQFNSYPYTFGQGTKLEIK	EC50	3.53
28F3 VH CDR3 mutant M98A, M111L (antibody, V domains shown, also called G1) VH: QVQLVESGGGVVQPGRSLRLSCAASGFTFSSYGMHWVRQAPGKGLEWVAVIWYEGSNKYYADSVKGRFTISRDNSKNTLYLQMNSLRAEDTAVYYCARGGSAVRGDYYYGLDVWGQGTTVTVSS VL: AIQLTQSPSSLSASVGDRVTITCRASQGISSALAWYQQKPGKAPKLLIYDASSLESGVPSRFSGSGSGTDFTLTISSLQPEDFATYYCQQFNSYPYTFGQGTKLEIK	EC50	187
